- Test system: BALB/c 3T3 (CCL-163) cells
property-name: MPE

Before answering, review these 2 worked examples.
CC1c2cccc(O)c2C(=O)C2=C(O)C3(O)C(=O)C(C(=O)NCN4CCCC4)=C(O)CC3C(O)C21 (stereo not shown) : 0.382
CC1c2cccc(O)c2C(=O)C2=C(O)C3(O)C(=O)C(C(=O)NCN4CCCCC4)=C(O)CC3C(O)C21 (stereo not shown) : 0.387

1: CC(=O)Nc1ccc2c(c1O)C(=O)C1=C(O)C3(O)C(=O)C(C(N)=O)=C(O)CC3CC1C2 (stereo not shown)
2: CC(=O)Nc1ccc2c(c1O)C(=O)C1=C(O)C3(O)C(=O)C(C(N)=O)=C(O)CC3C(O)C1C2C (stereo not shown)
Req: MPE comparison. Which is larger, 1 or 2 ? Provide the label of your selected option as the answer.
Resp: 1
(1: 0.420, 2: −0.001)
